Biological target: opiate receptors isolated from rat brain
Format: binding
Settings: inhibition of 1 nM 3H-Naloxone specific binding, rat brain membranes; screening concentration 10^-5 M; monohydrochloride
experimental.endpoint: IC50

Per the reported opiate receptors isolated from rat brain data, CN[C@@H](Cc1c(C)cc(O)cc1C)C(=O)N[C@H](C)C(=O)NCCCc1ccccc1.Cl [Example 13, monohydrochloride] has IC50 of 1800 nM

====

System: phenylbenzoquinone-induced writhing in mice
Test: Writhing assay (phenylbenzoquinone)
Format: in vivo
Settings: screening dose 10 mg/kg p.o. (intragastric), 30 min before phenylbenzoquinone i.p.
experimental.endpoint: Writhing Mouse Oral

Example compounds with recorded Writhing Mouse Oral:
{"compound": "COc1cc(C)c(C[C@H](N)C(=O)N[C@H](C)C(=O)NCCCc2ccccc2)c(C)c1 [Example 4]", "target.under.test": "phenylbenzoquinone-induced writhing in mice", "experimental.endpoint": "Writhing Mouse Oral", "experimental.result": "Active"}
{"compound": "Cc1cc(C)c(C[C@H](N)C(=O)N[C@H](C)C(=O)NCCCc2ccccc2)c(C)c1.Cl", "target.under.test": "phenylbenzoquinone-induced writhing in mice", "experimental.endpoint": "Writhing Mouse Oral", "experimental.result": "Inactive"}
{"compound": "CN[C@@H](Cc1c(C)cc(O)cc1C)C(=O)N[C@H](C)C(=O)NCCCc1ccccc1.Cl", "target.under.test": "phenylbenzoquinone-induced writhing in mice", "experimental.endpoint": "Writhing Mouse Oral", "experimental.result": "Inactive"}
{"compound": "Cc1cc(OCc2ccccc2)cc(C)c1C[C@H](N)C(=O)N[C@H](C)C(=O)NCCCc1ccccc1.Cl", "target.under.test": "phenylbenzoquinone-induced writhing in mice", "experimental.endpoint": "Writhing Mouse Oral", "experimental.result": "Active"}
{"compound": "CN[C@@H](Cc1c(C)cc(O)cc1C)C(=O)N[C@H](C)C(=O)NCCCc1ccccc1.CN[C@@H](Cc1c(C)cc(O)cc1C)C(=O)N[C@H](C)C(=O)NCCCc1ccccc1.CN[C@@H](Cc1c(C)cc(O)cc1C)C(=O)N[C@H](C)C(=O)NCCCc1ccccc1.CN[C@@H](Cc1c(C)cc(O)cc1C)C(=O)N[C@H](C)C(=O)NCCCc1ccccc1.Cl.Cl.Cl.Cl.Cl", "target.under.test": "phenylbenzoquinone-induced writhing in mice", "experimental.endpoint": "Writhing Mouse Oral", "experimental.result": "Inactive"}
{"compound": "COc1cc(C)c(CC(N)C(=O)N[C@H](C)C(=O)NCCCc2ccccc2)c(C)c1.Cl (mixture of isomers)", "target.under.test": "phenylbenzoquinone-induced writhing in mice", "experimental.endpoint": "Writhing Mouse Oral", "experimental.result": "Active"}
{"compound": "CN[C@@H](Cc1c(C)cc(OC)cc1C)C(=O)N[C@H](C)C(=O)NCCCc1ccccc1.Cl", "target.under.test": "phenylbenzoquinone-induced writhing in mice", "experimental.endpoint": "Writhing Mouse Oral", "experimental.result": "Active"}
{"compound": "COc1ccc(C[C@H](N)C(=O)N[C@H](C)C(=O)NCCCc2ccccc2)cc1.Cl", "target.under.test": "phenylbenzoquinone-induced writhing in mice", "experimental.endpoint": "Writhing Mouse Oral", "experimental.result": "Active"}

The reported value for Cc1cc(O)cc(C)c1CC(N)C(=O)N[C@H](C)C(=O)N(C)CCCc1ccccc1.Cl (mixture of isomers) in terms of Writhing Mouse Oral is Inactive
